test.protocol: in vivo
recorded.conditions: male, Wistar, rat, plasma, iv, 0.82 mg/kg
Residues, ends and D or L forms follow the SMILES beside them.
property.measured: AUC0-inf (ng·h/mL)
Output spec: scalar in ng·h/mL, unitless text.

Identify the reported AUC0-inf for the following entry. CC(=O)N[C@@H](CO)C(=O)N[C@@H](CC(=O)O)C(=O)N[C@@H](CCCCN)C(=O)N1CCC[C@H]1C(N)=O [AcSDKP-NH2, N-acetyl-Ser-Asp-Lys-Pro-NH2] (Ac-SDKP-NH2)
1230

###

test.protocol: in vivo
recorded.conditions: male, Wistar, rat, plasma, iv
Residues, ends and D or L forms follow the SMILES beside them.
property.measured: half-life (min)
Please respond with the number in min and leave the unit unwritten.

Identify measured half-life associated with CC(=O)N[C@@H](CO)C(=O)N[C@@H](CC(=O)O)C(=O)N[C@@H](CCCCN)C(=O)N1CCC[C@H]1C(N)=O [AcSDKP-NH2, N-acetyl-Ser-Asp-Lys-Pro-NH2] (Ac-SDKP-NH2)
23.1
